# tgt: glutathione S-transferase [GST: P08515]
# Sequence (P08515 whole entry): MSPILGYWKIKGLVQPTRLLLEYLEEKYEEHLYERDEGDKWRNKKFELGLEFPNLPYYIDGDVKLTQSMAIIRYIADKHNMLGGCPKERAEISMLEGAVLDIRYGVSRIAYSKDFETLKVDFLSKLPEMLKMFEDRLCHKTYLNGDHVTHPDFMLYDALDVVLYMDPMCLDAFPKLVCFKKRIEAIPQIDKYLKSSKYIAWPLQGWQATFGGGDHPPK
# protocol: indirect ELISA, GST coated
testReadout: ELISA affinity (LogIC50 (oD450nm))

Input line: What value of ELISA affinity (LogIC50 (oD450nm)) has been recorded for this entry: G77 (VHH) VHH: QVQLVESGGGLVQAGGSLRLSCTASRSTFRVNPAGWYRQAPGKERELVARITSGGSTNYADSVKGRFTISRDNAKNTVYLQMNSLKPEDTAVYYCNVPYYMEDGYEHDAWGQGTQVTVSS
Output line: 6.01

Input line: What value of ELISA affinity (LogIC50 (oD450nm)) has been recorded for this entry: G23 (VHH) VHH: QVQLVESGGGLVQPGGSLRLSCAASGFTFSVNTMSWVRQAPGKGREWVSGIESHGNTYYSDSVKGRFTISRDNAKNTLYLQMNSLKPEDTAVYYCATGIYGTTRNWGQGTQVTVSS
Output line: 2.54

Input line: What value of ELISA affinity (LogIC50 (oD450nm)) has been recorded for this entry: G15 (VHH) VHH: QVQLVESGGGLVQAGGSLRLSCAASGSTFDTNPIGWYRQAPGKQRDLVAMITSGGHTNYADSVKGRFTISRDNAKNTVYLQMNSLKPEDTAVYYCTVPHYREDGYEYHCWGQGTQVTVSS
Output line: 4.61

Input line: What value of ELISA affinity (LogIC50 (oD450nm)) has been recorded for this entry: G37 (VHH) VHH: EVQLVESGGGLVQAGDSLRLSCVASGDTFTSYTVGWFRQAPGKEQEFVAGISWSGRSTDYADFVKGRATISKDIAKVSLQMNALKPEDTAVYSCAAKKVDWSSDYVTNYDYDYRGRGTQVTVSS
Output line: 1.78

Input line: What value of ELISA affinity (LogIC50 (oD450nm)) has been recorded for this entry: G91 (VHH) VHH: EVQLVESGGGLVQAGGSLRLSCAASGRTFSDYPMAWFRQALGKEREFLATISTSGSRTMYADSVKGRFTISRDNAKNMMYLQMNSLKPEDAAVYYCAARQGSYYSDYNRALPGEYHYWGQGTQVTVSS
Output line: 1.15

(A) G78 (VHH) VHH: DVQLVESGGGLVQAGGSLRLSCTASQSILYINVMGWYRQAPGKQRELVAEIPTGGNTDYADSVKGRFTISRDNVKNTVSLQMNSLKPEDTAVYYCNVRGGVLSPYDYWGQGTQVTVSS
(B) G65 (VHH) VHH: QVQLVESGGGLVQAGGSLRLSCATSGRTFSTYALGWFRQRPGKEREFVATIHWSDGRTLYADSVKGRFTLSRDNAQNTVYLQMNSLKPEDTAIYYCAASIYRIGSYDVSTSQGYDYWGQGTQVTVSS
Input line: // returns A or B , whichever has the lower ELISA affinity (LogIC50 (oD450nm)) Kindly give the label for the entry you pick.
Output line: A
